Protein target, amino acids: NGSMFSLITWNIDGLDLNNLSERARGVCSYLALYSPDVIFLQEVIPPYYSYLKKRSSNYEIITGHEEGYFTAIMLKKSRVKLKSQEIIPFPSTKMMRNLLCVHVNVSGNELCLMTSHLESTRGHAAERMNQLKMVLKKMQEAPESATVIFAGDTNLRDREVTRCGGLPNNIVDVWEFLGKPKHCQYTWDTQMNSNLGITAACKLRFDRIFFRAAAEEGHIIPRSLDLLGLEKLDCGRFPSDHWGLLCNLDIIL
metric_name: IC50 (µM)
Expressed in µM, but write only the number.

Q: Quick one: IC50 for COc1ccc2nc(NC(=N)N)nc(C)c2c1 [Compound 11a] ?
Ans: 113
